tested on: Leishmania major; assay: Antiparasite activity against luciferase-expressing Leishmania major amastigotes isolated from infected in mouse RAW264.7 cells assessed as growth inhibition incubated for 96 hrs by luciferase reporter gene assay; type: functional, organism-based; details: RAW264.7, 96 h
MEASURED_ATTRIBUTE: EC50

Reference set, count: 7
MOLECULE: CN1CCCN(S(=O)(=O)c2ccc(-c3ccc4ncnc(Nc5ccc(OCc6cccc(F)c6)c(Cl)c5)c4c3)cc2)CC1
EC50: 2.1 µM

MOLECULE: Fc1cccc(COc2ccc(Nc3ncnc4ccc(-c5cccc(N6CCOCC6)c5)cc34)cc2Cl)c1
EC50: 8 µM

MOLECULE: O=S(=O)(c1ccc(-c2ccc3c(Nc4ccc(OCc5ccccc5)c(Cl)c4)cnnc3c2)cc1)N1CCOCC1
EC50: > 15 µM

MOLECULE: Fc1cccc(COc2ccc(Nc3nccc4ccc(-c5cccc(N6CCOCC6)c5)cc34)cc2Cl)c1
EC50: 6 µM

MOLECULE: N#Cc1cnc2ccc(-c3cccc(N4CCOCC4)c3)cc2c1Nc1ccc(OCc2ccccc2)c(Cl)c1
EC50: > 15 µM

MOLECULE: CN1CCN(S(=O)(=O)c2ccc(-c3ccc4c(Nc5ccc(OCc6cccc(F)c6)c(Cl)c5)nncc4c3)cc2)CC1
EC50: > 15 µM

MOLECULE: N#Cc1cnc2ccc(-c3ccc(S(=O)(=O)N4CCOCC4)cc3)cc2c1Nc1ccc(OCc2cccc(F)c2)c(Cl)c1
EC50: > 15 µM

Consider the additional compound presented here.
Exercise: State the recorded EC50 for this entry: CN1CCN(S(=O)(=O)c2ccc(-c3ccc4ncc(C#N)c(Nc5ccc(OCc6cccc(F)c6)c(Cl)c5)c4c3)cc2)CC1
Solution: > 15 µM

----------
tested on: Plasmodium falciparum; test: Antiparasite activity against Plasmodium falciparum D6 assessed as growth inhibition incubated for 72 hrs by SYBR green fluorescence assay; type: functional, organism-based; conditions: D6, 72 h
MEASURED_ATTRIBUTE: EC50 (nM)
Give bare numbers, in nM.

Go through the list and state EC50 for each entry.
1. CN1CCN(S(=O)(=O)c2ccc(-c3ccc4c(Nc5ccc(OCc6cccc(F)c6)c(Cl)c5)nccc4c3)cc2)CC1
2. CN1CCN(S(=O)(=O)c2ccc(-c3ccc4ncnc(Nc5ccc(OCc6cccc(F)c6)c(Cl)c5)c4c3)cc2)CC1
3. CN1CCCN(S(=O)(=O)c2ccc(-c3ccc4ncnc(Nc5ccc(OCc6cccc(F)c6)c(Cl)c5)c4c3)cc2)CC1
4. CN1CCCN(S(=O)(=O)c2ccc(-c3ccc4c(Nc5ccc(OCc6cccc(F)c6)c(Cl)c5)ccnc4c3)cc2)CC1
5. O=S(=O)(c1ccc(-c2ccc3c(Nc4ccc(OCc5ccccc5)c(Cl)c4)ccnc3c2)cc1)N1CCOCC1
6. CN1CCN(S(=O)(=O)c2ccc(-c3ccc4ccnc(Nc5ccc(OCc6cccc(F)c6)c(Cl)c5)c4c3)cc2)CC1
7. Fc1cccc(COc2ccc(Nc3nccc4cc(-c5cccc(N6CCOCC6)c5)ccc34)cc2Cl)c1
8. CN1CCCN(S(=O)(=O)c2ccc(-c3ccc4ncc(C#N)c(Nc5ccc(OCc6cccc(F)c6)c(Cl)c5)c4c3)cc2)CC1

Solution:
[110, 27, 46, 94, 16, 40, 2800, 47]

Give one value of EC50 per listed molecule.
1. O=S(=O)(c1ccc(-c2ccc3ccnc(Nc4ccc(OCc5ccccc5)c(Cl)c4)c3c2)cc1)N1CCOCC1
2. CN1CCCN(S(=O)(=O)c2ccc(-c3ccc4ccnc(Nc5ccc(OCc6cccc(F)c6)c(Cl)c5)c4c3)cc2)CC1
3. N#Cc1cnc2ccc(-c3cccc(N4CCOCC4)c3)cc2c1Nc1ccc(OCc2ccccc2)c(Cl)c1
4. O=S(=O)(c1ccc(-c2ccc3c(Nc4ccc(OCc5ccccc5)c(Cl)c4)nccc3c2)cc1)N1CCOCC1
5. O=S(=O)(c1ccc(-c2ccc3nccc(Nc4ccc(OCc5ccccc5)c(Cl)c4)c3c2)cc1)N1CCOCC1
6. CN1CCN(S(=O)(=O)c2ccc(-c3ccc4nncc(Nc5ccc(OCc6cccc(F)c6)c(Cl)c5)c4c3)cc2)CC1
7. O=S(=O)(c1ccc(-c2ccc3cnnc(Nc4ccc(OCc5ccccc5)c(Cl)c4)c3c2)cc1)N1CCOCC1
8. N#Cc1cnc2ccc(-c3ccc(S(=O)(=O)N4CCOCC4)cc3)cc2c1Nc1ccc(OCc2ccccc2)c(Cl)c1

Solution:
[870, 86, 970, 3400, 32, 130, 540, 280]

----------
system: Leishmania major; assay: Antiparasite activity against luciferase-expressing Leishmania major amastigotes isolated from infected in mouse RAW264.7 cells assessed as growth inhibition incubated for 96 hrs by luciferase reporter gene assay; format: functional, organism-based; conditions: RAW264.7, 96 h
MEASURED_ATTRIBUTE: EC50 (nM)
Answers are plain numbers, in nM.

Worked cases, answers included:
MOLECULE: CN1CCCN(S(=O)(=O)c2ccc(-c3ccc4cnnc(Nc5ccc(OCc6cccc(F)c6)c(Cl)c5)c4c3)cc2)CC1
VAL: 5600
--
MOLECULE: CN1CCCN(S(=O)(=O)c2ccc(-c3ccc4nncc(Nc5ccc(OCc6cccc(F)c6)c(Cl)c5)c4c3)cc2)CC1
VAL: 1060

Exercise: Give the measured EC50 of C[C@@H]1[C@H](O)[C@@H](C)/C=C/C=C/C=C/C=C/C=C/C=C/C=C/[C@H](O[C@@H]2O[C@H](C)[C@@H](O)[C@H](N)[C@@H]2O)C[C@@H]2O[C@](O)(C[C@@H](O)C[C@@H](O)[C@H](O)CC[C@@H](O)C[C@@H](O)CC(=O)O[C@H]1C)C[C@H](O)[C@H]2C(=O)O .
Solution: 47

----------
Please go through the items and note down their pEC50.
tested on: Leishmania major; experiment: Antiparasite activity against luciferase-expressing Leishmania major amastigotes isolated from infected in mouse RAW264.7 cells assessed as growth inhibition incubated for 96 hrs by luciferase reporter gene assay; assay type: functional, organism-based; settings: RAW264.7, 96 h
pEC50: −log10 of the molar value.

Here's what some known entries look like.
MOLECULE: N#Cc1cnc2ccc(-c3ccc(S(=O)(=O)N4CCOCC4)cc3)cc2c1Nc1ccc(OCc2ccccc2)c(Cl)c1
pEC50: < 4.82
//
MOLECULE: CN1CCCN(S(=O)(=O)c2ccc(-c3ccc4c(Nc5ccc(OCc6cccc(F)c6)c(Cl)c5)ccnc4c3)cc2)CC1
pEC50: 6.05
//
MOLECULE: O=S(=O)(c1ccc(-c2ccc3c(Nc4ccc(OCc5ccccc5)c(Cl)c4)nncc3c2)cc1)N1CCOCC1
pEC50: < 4.82
//
MOLECULE: Fc1cccc(COc2ccc(Nc3nccc4cc(-c5cccc(N6CCOCC6)c5)ccc34)cc2Cl)c1
pEC50: 5.66
//
MOLECULE: O=S(=O)(c1ccc(-c2ccc3cnnc(Nc4ccc(OCc5ccccc5)c(Cl)c4)c3c2)cc1)N1CCOCC1
pEC50: < 5.40

Look at each molecule and report its pEC50.
1. N#Cc1cnc2ccc(-c3cccc(N4CCOCC4)c3)cc2c1Nc1ccc(OCc2cccc(F)c2)c(Cl)c1
2. CN1CCCN(S(=O)(=O)c2ccc(-c3ccc4ccnc(Nc5ccc(OCc6cccc(F)c6)c(Cl)c5)c4c3)cc2)CC1
3. CN1CCN(S(=O)(=O)c2ccc(-c3ccc4cnnc(Nc5ccc(OCc6cccc(F)c6)c(Cl)c5)c4c3)cc2)CC1

Solution:
1. < 4.82
2. 5.66
3. < 5.40

----------
assay: Toxicity against human HepG2 cells incubated for 48 hrs by MTT assay; assay type: cell-based; conditions: read-out: TC50
Can you tell me CC50 at 48 h for the items I'm about to list?

MOLECULE: O=S(=O)(c1ccc(-c2ccc3ccnc(Nc4ccc(OCc5ccccc5)c(Cl)c4)c3c2)cc1)N1CCOCC1
CC50 at 48 h: > 25 µM
//
MOLECULE: Fc1cccc(COc2ccc(Nc3nccc4ccc(-c5cccc(N6CCOCC6)c5)cc34)cc2Cl)c1
CC50 at 48 h: > 28 µM
//
MOLECULE: Fc1cccc(COc2ccc(Nc3ccnc4ccc(-c5cccc(N6CCOCC6)c5)cc34)cc2Cl)c1
CC50 at 48 h: 10 µM
//
MOLECULE: O=S(=O)(c1ccc(-c2cc3ncnc(Nc4ccc(OCc5ccccc5)c(Cl)c4)c3s2)cc1)N1CCOCC1
CC50 at 48 h: > 5 µM
//
MOLECULE: CN1CCN(S(=O)(=O)c2ccc(-c3ccc4ccnc(Nc5ccc(OCc6cccc(F)c6)c(Cl)c5)c4c3)cc2)CC1
CC50 at 48 h: > 15 µM

// input: 3 molecules below; output: CC50 at 48 h for each
1. CN1CCN(S(=O)(=O)c2ccc(-c3ccc4ncc(C#N)c(Nc5ccc(OCc6cccc(F)c6)c(Cl)c5)c4c3)cc2)CC1
2. Fc1cccc(COc2ccc(Nc3ncnc4ccc(-c5cccc(N6CCOCC6)c5)cc34)cc2Cl)c1
3. CN1CCCN(S(=O)(=O)c2ccc(-c3ccc4ncnc(Nc5ccc(OCc6cccc(F)c6)c(Cl)c5)c4c3)cc2)CC1

Solution:
1: > 15 µM; 2: > 15 µM; 3: 1.1 µM

Dear reader, for each entry below, please note its CC50 at 48 h.
1. CN1CCCN(S(=O)(=O)c2ccc(-c3ccc4c(Nc5ccc(OCc6cccc(F)c6)c(Cl)c5)ccnc4c3)cc2)CC1
2. Fc1cccc(COc2ccc(Nc3ccnc4cc(-c5cccc(N6CCOCC6)c5)ccc34)cc2Cl)c1
3. Fc1cccc(COc2ccc(Nc3ncnc4sc(-c5cccc(N6CCOCC6)c5)cc34)cc2Cl)c1
4. Fc1cccc(COc2ccc(Nc3cnnc4cc(-c5cccc(N6CCOCC6)c5)ccc34)cc2Cl)c1

Solution:
5 µM
> 5 µM
> 15 µM
11 µM
